Record form. Attribute: apparent Kd (screen). Fill in for each entry.
- ASSAY_SYSTEM: T1, TNFR1 (Homo sapiens, UniProt P19438)
- T1 chain: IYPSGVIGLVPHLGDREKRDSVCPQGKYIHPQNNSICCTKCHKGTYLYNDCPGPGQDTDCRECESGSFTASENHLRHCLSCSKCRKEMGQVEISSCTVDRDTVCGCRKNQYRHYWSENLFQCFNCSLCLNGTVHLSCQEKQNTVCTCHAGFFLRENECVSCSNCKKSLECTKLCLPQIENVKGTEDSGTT
- ASSAY_TEXT: yeast display SC50
Numbers only, in nM.

In the examples that follow, each entry is paired with its recorded apparent Kd (screen).
1. A51Y (designed binder) SMEEEVEKAAKEYEKKKKEAIEKHLEKLKAKDKEAAERFLKELEEAAKEYYKDEAKTMSEEEAKRRAKKYKEKVLLSELSEEEQKEIKEAEEKLVRTILKYVEEAAK = 0.49
2. A30L (designed binder) SMEEEVEKAAKEYEKKKKEAIEKHLEKLKLKDKEAAERFLKELEEAAKEYAKDEAKTMSEEEAKRRAKKYKEKVLLSELSEEEQKEIKEAEEKLVRTILKYVEEAAK = 0.593
3. A47D (designed binder) SMEEEVEKAAKEYEKKKKEAIEKHLEKLKAKDKEAAERFLKELEEADKEYAKDEAKTMSEEEAKRRAKKYKEKVLLSELSEEEQKEIKEAEEKLVRTILKYVEEAAK = 1.16
4. E22I (designed binder) SMEEEVEKAAKEYEKKKKEAIIKHLEKLKAKDKEAAERFLKELEEAAKEYAKDEAKTMSEEEAKRRAKKYKEKVLLSELSEEEQKEIKEAEEKLVRTILKYVEEAAK = 1.16
5. K8H (designed binder) SMEEEVEHAAKEYEKKKKEAIEKHLEKLKAKDKEAAERFLKELEEAAKEYAKDEAKTMSEEEAKRRAKKYKEKVLLSELSEEEQKEIKEAEEKLVRTILKYVEEAAK = 0.956
6. D53C (designed binder) SMEEEVEKAAKEYEKKKKEAIEKHLEKLKAKDKEAAERFLKELEEAAKEYAKCEAKTMSEEEAKRRAKKYKEKVLLSELSEEEQKEIKEAEEKLVRTILKYVEEAAK = 2.73
7. S59E (designed binder) SMEEEVEKAAKEYEKKKKEAIEKHLEKLKAKDKEAAERFLKELEEAAKEYAKDEAKTMEEEEAKRRAKKYKEKVLLSELSEEEQKEIKEAEEKLVRTILKYVEEAAK = 0.956
8. E44T (designed binder) SMEEEVEKAAKEYEKKKKEAIEKHLEKLKAKDKEAAERFLKELTEAAKEYAKDEAKTMSEEEAKRRAKKYKEKVLLSELSEEEQKEIKEAEEKLVRTILKYVEEAAK = 0.956
9. I98E (designed binder) SMEEEVEKAAKEYEKKKKEAIEKHLEKLKAKDKEAAERFLKELEEAAKEYAKDEAKTMSEEEAKRRAKKYKEKVLLSELSEEEQKEIKEAEEKLVRTELKYVEEAAK = 4.39
10. A67C (designed binder) SMEEEVEKAAKEYEKKKKEAIEKHLEKLKAKDKEAAERFLKELEEAAKEYAKDEAKTMSEEEAKRRCKKYKEKVLLSELSEEEQKEIKEAEEKLVRTILKYVEEAAK = 22.2

Please look at the items below and tell me apparent Kd (screen) for each one, in order.
1. A51T (designed binder) SMEEEVEKAAKEYEKKKKEAIEKHLEKLKAKDKEAAERFLKELEEAAKEYTKDEAKTMSEEEAKRRAKKYKEKVLLSELSEEEQKEIKEAEEKLVRTILKYVEEAAK
2. T97V (designed binder) SMEEEVEKAAKEYEKKKKEAIEKHLEKLKAKDKEAAERFLKELEEAAKEYAKDEAKTMSEEEAKRRAKKYKEKVLLSELSEEEQKEIKEAEEKLVRVILKYVEEAAK
3. V102I (designed binder) SMEEEVEKAAKEYEKKKKEAIEKHLEKLKAKDKEAAERFLKELEEAAKEYAKDEAKTMSEEEAKRRAKKYKEKVLLSELSEEEQKEIKEAEEKLVRTILKYIEEAAK
4. E37V (designed binder) SMEEEVEKAAKEYEKKKKEAIEKHLEKLKAKDKEAAVRFLKELEEAAKEYAKDEAKTMSEEEAKRRAKKYKEKVLLSELSEEEQKEIKEAEEKLVRTILKYVEEAAK
5. E45D (designed binder) SMEEEVEKAAKEYEKKKKEAIEKHLEKLKAKDKEAAERFLKELEDAAKEYAKDEAKTMSEEEAKRRAKKYKEKVLLSELSEEEQKEIKEAEEKLVRTILKYVEEAAK
6. S77N (designed binder) SMEEEVEKAAKEYEKKKKEAIEKHLEKLKAKDKEAAERFLKELEEAAKEYAKDEAKTMSEEEAKRRAKKYKEKVLLNELSEEEQKEIKEAEEKLVRTILKYVEEAAK

-- reply
[3.3, 2.73, 2.73, 0.539, 0.539, 3]
